# Tested on: Malme-3M
# ASSAY PROCEDURE: NCI tumour cell line growth inhibition, 48 h
Calls of active or inactive are those of the source. No stated cut-off is given here; in the data, active = GI50 up to about 1.1 µM and inactive = higher.
Thanks in advance; please answer with one of these: active, inactive

Problem: Called result for CCC(=O)OC1CCn2c1nc1c2C(=O)C(C)=C(NC(C)=O)C1=N (stereo not drawn)
Solution: inactive

Problem: Queued: COc1ccc(C(F)(F)F)cc1NC(=O)O/N=C(/Cl)C(C)C
Solution: inactive

Problem: Queued: C=CCC(CCC(C)=O)(C(=O)OCC)C(=O)OCC
Solution: inactive

Problem: Queued: CC(=O)OCC1OC(N2C(C)=C(C(C)=O)C(c3ccco3)C(C#N)=C2S)C(OC(C)=O)C(OC(C)=O)C1OC(C)=O (stereo not drawn)
Solution: inactive

Problem: Queued: CN(C)/C=C/c1c2c(nc3ccccc13)C(=O)c1cccnc1C2=O
Solution: active

Problem: Queued: COc1ccc(C[N+]23C(CC[C@H]2c2ccccc2)CC[C@H]3c2ccccc2)cc1 (stereo partly drawn)
Solution: inactive

Problem: Queued: O=C(Oc1ccc(Cl)cc1[N+](=O)[O-])c1ccccc1
Solution: inactive

Problem: Queued: O=C(O)CNc1ccc2c(c1)Cc1cc(Br)ccc1-2
Solution: inactive

Problem: Queued: O=C(O)Cc1cccc2c(=O)c3ccccc3oc12
Solution: inactive

Problem: Queued: CC1=C(/C=C/C(C)=C/C=C/C(C)=C/C(=O)OCC2OC(n3cc(F)c(=O)[nH]c3=O)CC2OC(=O)/C=C(C)/C=C/C=C(C)/C=C/C2=C(C)CCCC2(C)C)C(C)(C)CCC1 (stereo not drawn)
Solution: inactive

Problem: Queued: CCc1cn(C2CC(CO)C(CO)S2)c(=O)[nH]c1=O (stereo not drawn)
Solution: inactive

Problem: Queued: COC(=O)C1(C(=O)OC)CC2=C(S(=O)(=O)c3ccccc3)C[C@@H](C#N)[C@H]2C1
Solution: inactive

Problem: Queued: N#CCCN(CCC#N)c1ccc(C(Sc2ccccc2)C(NC(=O)c2cc([N+](=O)[O-])ccc2Cl)C(=O)Sc2ccccc2)cc1 (stereo not drawn)
Solution: inactive

Problem: Queued: COC1CC(OC2C(C)OC(OC3C(C)OC(OC4C(C)OC(O[C@H]5CC[C@@]6(C)C(=CC[C@]7(O)[C@@H]6C[C@@H](OC(=O)/C=C(\C)C(C)C)[C@@]6(C)[C@]7(O)CC[C@@]6(O)C(C)=O)C5)CC4OC)CC3OC)CC2OC)OC(C)C1O (stereo partly drawn)
Solution: inactive

Problem: Queued: CCN(CC)CCN(C)CC(C)(C)C(=O)/C=C/c1ccccc1
Solution: inactive

Problem: Queued: CC(=O)Nc1cc2cc(N)ccc2oc1=O
Solution: inactive

Problem: Queued: OC1(C(Sc2cc(C(F)(F)F)cc(C(F)(F)F)c2)Sc2cc(C(F)(F)F)cc(C(F)(F)F)c2)C=CCCC1 (stereo not drawn)
Solution: inactive

Problem: Queued: CC(C)=CC1C(C(=O)O)C1(C)C (stereo not drawn)
Solution: inactive
